System: MV-4-11
Experiment: Cytotoxicity in cell lines
Type: cell-based
Conditions: Homo sapiens, MV4-11, Table 4; read-out: IC50 MV-411
Assay readout: pIC50
Answers are plain numbers, as −log10 of the molar value.

Molecule: O=C(NO)c1ccc(CN(Cc2ccccn2)S(=O)(=O)c2cc(F)c(F)c(F)c2F)cc1 [Compound I-20]
pIC50: 6.32
--
Molecule: O=C(NO)c1ccc(CN(C2CCCC2)S(=O)(=O)c2cc(F)c(F)c(F)c2F)cc1 [Compound I-51]
pIC50: 5.55
--
Molecule: CC(C)CN(Cc1ccc(C(=O)NO)cc1)S(=O)(=O)c1cc(F)c(F)c(F)c1F [Compound I-54]
pIC50: 6.30
--
Molecule: O=C(NO)c1ccc(CN(CCc2ccccc2F)S(=O)(=O)c2cc(F)c(F)c(F)c2F)cc1 [Compound I-21]
pIC50: 6.32
--
Molecule: O=C(NO)c1ccc(CN(Cc2cccnc2F)S(=O)(=O)c2cc(F)c(F)c(F)c2F)c(F)c1 [Compound I-32]
pIC50: 6.41
--
Molecule: CN(Cc1ccc(C(=O)NO)cc1)S(=O)(=O)c1c(F)c(F)c(F)c(F)c1F [Compound I-2]
pIC50: 5.98
--
Molecule: O=C(NO)c1ccc(CN(C2CC2)S(=O)(=O)c2c(F)c(F)cc(F)c2F)cc1 [Compound I-14]
pIC50: 5.24
--
Molecule: O=C(NO)c1ccc(CN(Cc2ccc(F)nc2)S(=O)(=O)c2cc(F)c(F)c(F)c2F)cc1 [Compound I-27]
pIC50: 6.07

Would you mind listing pIC50 for each of the following molecules?
1. O=C(NO)c1ccc(CN(Cc2ccncc2F)S(=O)(=O)c2cc(F)c(F)c(F)c2F)cc1 [Compound I-28]
2. CC(C)N(Cc1cc(F)c(C(=O)NO)cc1F)S(=O)(=O)c1cc(F)c(F)c(F)c1F [Compound I-52]
3. CC(C)N(Cc1ccc(C(=O)NO)cc1F)S(=O)(=O)c1cc(F)c(F)c(F)c1F [Compound I-50]
4. Cc1ccc(CN(Cc2ccc(C(=O)NO)cc2)S(=O)(=O)c2cc(F)c(F)c(F)c2F)c(F)c1 [Compound I-26]

Marked response:
[6.22, 6.00, 5.80, 5.73]

Entry source: patent US20220169598A1
